# experimental-target: Kallikrein-5 (Homo sapiens) (UniProt Q9Y337)
# Sequence (Q9Y337 67-293 limits assumed): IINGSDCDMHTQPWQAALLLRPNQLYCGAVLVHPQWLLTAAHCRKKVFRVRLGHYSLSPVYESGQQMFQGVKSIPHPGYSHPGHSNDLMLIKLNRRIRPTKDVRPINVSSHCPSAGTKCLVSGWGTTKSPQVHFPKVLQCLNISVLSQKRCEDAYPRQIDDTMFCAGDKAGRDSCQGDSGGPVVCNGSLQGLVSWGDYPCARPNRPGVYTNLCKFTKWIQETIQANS
# assay-summary: inhibition of kallikrein 5 (hK5) activity – biochemical, 1536-well, primary screen (AID 873);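 also: 0% = enzyme controls without compound and 100% = no-enzyme blanks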
# experimental-context: recombinant hK5, fluorogenic AMC substrate cleavage; at 5 µM; stronger effect = higher value
Among all 210,000 compounds or so, about 1,300 (0.62%) were called active. What follows is part of a selection rich in actives, with near analogues and random picks from the rest.
inhibition overview
measured-property: inhibition (%)

- molecule: "CCOc1ccccc1N1CN(Cc2ccccc2)CNC1=S"
  measured-property: "inhibition"
  output-unit: "%"
  data-value: -6.7
- molecule: "O=C(Nc1nnc(COc2ccccc2)s1)Nc1ccccc1F"
  measured-property: "inhibition"
  output-unit: "%"
  data-value: 0.25
- molecule: "CC1C(=O)NC(=O)C1c1ccccc1 (stereo unspecified)"
  measured-property: "inhibition"
  output-unit: "%"
  data-value: 1.86
- molecule: "Cc1ccc(-c2csc(NC(=O)c3cccs3)n2)cc1"
  measured-property: "inhibition"
  output-unit: "%"
  data-value: -16.5
- molecule: "CCOc1ccccc1NC(=O)CCc1ccc(C)o1"
  measured-property: "inhibition"
  output-unit: "%"
  data-value: 118
- molecule: "CCS(=O)(=O)NCCc1ccc(OC)c(OC)c1"
  measured-property: "inhibition"
  output-unit: "%"
  data-value: -7.94
- molecule: "C/C(=N\\NC(=S)NCc1ccccc1)C1CCCCC1"
  measured-property: "inhibition"
  output-unit: "%"
  data-value: -4.43
- molecule: "O=C(CNC(=O)c1cc(=O)[nH]c2ccccc12)Nc1ccc(F)c(F)c1"
  measured-property: "inhibition"
  output-unit: "%"
  data-value: 5.97
- molecule: "Cc1ccc(OCC(O)CN2CCN(CC(O)COc3ccc(C)cc3Cl)CC2)c(Cl)c1 (stereo unspecified)"
  measured-property: "inhibition"
  output-unit: "%"
  data-value: 45.3
- molecule: "COc1ccc(-c2nn(C)c(=O)c3ccccc23)cc1CNC(=O)C1CCCCC1"
  measured-property: "inhibition"
  output-unit: "%"
  data-value: 1.08
- molecule: "Cc1ncn2cc(-c3ccc(Cl)cc3Cl)[nH]c(=O)c12"
  measured-property: "inhibition"
  output-unit: "%"
  data-value: 63
- molecule: "Cc1cccc(C)c1OCC(O)CN1CCCCC1 (stereo unspecified)"
  measured-property: "inhibition"
  output-unit: "%"
  data-value: -7.75
- molecule: "O=c1c(/C=N/O)coc2ccc(Cl)cc12"
  measured-property: "inhibition"
  output-unit: "%"
  data-value: 3.19
- molecule: "C/C(=N\\NC(=S)NCc1ccccc1)c1ccc(Cl)cc1"
  measured-property: "inhibition"
  output-unit: "%"
  data-value: 56.7
- molecule: "CCOCCCNCc1ccc(OCc2ccc(F)cc2)c(OC)c1"
  measured-property: "inhibition"
  output-unit: "%"
  data-value: -4.94
- molecule: "O=C(O)c1ccc(/C=N/NC(=S)NCc2ccccc2)cc1"
  measured-property: "inhibition"
  output-unit: "%"
  data-value: -1.6
- molecule: "COn1c(-c2ccc(Cl)cc2Cl)nc2ncccc21"
  measured-property: "inhibition"
  output-unit: "%"
  data-value: -1.75
- molecule: "CCOc1ccccc1NC(=O)Nc1cc(OC)ccc1OC"
  measured-property: "inhibition"
  output-unit: "%"
  data-value: -0.87
- molecule: "Cc1ccc(-c2csc(-c3cc(C)on3)n2)cc1"
  measured-property: "inhibition"
  output-unit: "%"
  data-value: 44.8
- molecule: "CCCc1cc(-c2nc(-c3ccc(C)cc3)cs2)ccn1"
  measured-property: "inhibition"
  output-unit: "%"
  data-value: -10.9
- molecule: "O=C(Nc1ncccn1)c1cccs1"
  measured-property: "inhibition"
  output-unit: "%"
  data-value: -0.12
- molecule: "CCCN(CC(=O)Nc1ccccc1C)C(=O)c1cc(=O)[nH]c2ccccc12"
  measured-property: "inhibition"
  output-unit: "%"
  data-value: 45.5
- molecule: "COc1ccc(CNCCCO)cc1OC"
  measured-property: "inhibition"
  output-unit: "%"
  data-value: 46.4
- molecule: "COCc1cc(=O)[nH]c(SC)n1"
  measured-property: "inhibition"
  output-unit: "%"
  data-value: 4.7
- molecule: "O=C(Nc1n[nH]c(C(F)(F)F)n1)c1cccs1"
  measured-property: "inhibition"
  output-unit: "%"
  data-value: 40.9
- molecule: "CCOC(=O)c1ccc(NC(=O)c2cc(=O)[nH]c3ccccc23)cc1"
  measured-property: "inhibition"
  output-unit: "%"
  data-value: -1.31
